Test: Fraction unbound in human plasma at 5 ug/ml by equilibrium dialysis method
Type: ADME, cell-free
Experimental endpoint: fraction unbound at 5 ug/ml

[[record]]
structure_notation = "COCCOc1cnc2ccn([C@H](C)c3nnc4ccc(-c5cnn(C)c5)cn34)c(=O)c2c1"
experimental_endpoint = "fraction unbound at 5 ug/ml"
measured_number = 0.498

[[record]]
structure_notation = "COCCOc1cnc2ccn([C@H](C)c3nnc4c(F)cc(-c5cnn(C)c5)cn34)c(=O)c2c1"
experimental_endpoint = "fraction unbound at 5 ug/ml"
measured_number = 0.419

[[record]]
structure_notation = "C[C@H](c1nnc2c(F)cc(-c3cnn(C)c3)cn12)n1ccc2ncccc2c1=O"
experimental_endpoint = "fraction unbound at 5 ug/ml"
measured_number = 0.478

[[record]]
structure_notation = "COc1cnc2ccn([C@H](C)c3nnc4ccc(-c5cnn(C)c5)cn34)c(=O)c2c1"
experimental_endpoint = "fraction unbound at 5 ug/ml"
measured_number = 0.286

[[record]]
structure_notation = "COc1cnc2ccn([C@H](C)c3nnc4c(F)cc(-c5cnn(C)c5)cn34)c(=O)c2c1"
experimental_endpoint = "fraction unbound at 5 ug/ml"
measured_number = 0.309

[[record]]
structure_notation = "COCCOc1cnc2ccn([C@H](C)c3nnc4ccc(-c5cc(C)no5)cn34)c(=O)c2c1"
experimental_endpoint = "fraction unbound at 5 ug/ml"
measured_number = 0.338

[[record]]
structure_notation = "Cc1cc(-c2cc(F)c3nnc([C@@H](C)n4ccc5ncccc5c4=O)n3c2)on1"
experimental_endpoint = "fraction unbound at 5 ug/ml"
measured_number = 0.32

[[record]]
structure_notation = "COCCOc1cnc2ccn([C@H](C)c3nnc4c(F)cc(-c5cc(C)no5)cn34)c(=O)c2c1"
experimental_endpoint = "fraction unbound at 5 ug/ml"
measured_number = 0.409


====

Experiment: Oral bioavailability in Sprague-Dawley rat at 2 mg/kg
Format: ADME, organism-based
Settings: in vivo
Experimental endpoint: bioavailability (%)

[[record]]
structure_notation = "COCCOc1cnc2ccn([C@H](C)c3nnc4c(F)cc(-c5cc(C)no5)cn34)c(=O)c2c1"
experimental_endpoint = "bioavailability"
scale_unit = "%"
measured_number = 54

[[record]]
structure_notation = "COc1cnc2ccn([C@H](C)c3nnc4c(F)cc(-c5cnn(C)c5)cn34)c(=O)c2c1"
experimental_endpoint = "bioavailability"
scale_unit = "%"
measured_number = 43

[[record]]
structure_notation = "Cc1cc(-c2cc(F)c3nnc([C@@H](C)n4ccc5ncccc5c4=O)n3c2)on1"
experimental_endpoint = "bioavailability"
scale_unit = "%"
measured_number = 44

[[record]]
structure_notation = "COc1cnc2ccn([C@H](C)c3nnc4ccc(-c5cnn(C)c5)cn34)c(=O)c2c1"
experimental_endpoint = "bioavailability"
scale_unit = "%"
measured_number = 36

[[record]]
structure_notation = "COCCOc1cnc2ccn([C@H](C)c3nnc4ccc(-c5cnn(C)c5)cn34)c(=O)c2c1"
experimental_endpoint = "bioavailability"
scale_unit = "%"
measured_number = 25

[[record]]
structure_notation = "COc1cnc2ccn([C@H](C)c3nnc4c(F)cc(-c5cc(C)no5)cn34)c(=O)c2c1"
experimental_endpoint = "bioavailability"
scale_unit = "%"
measured_number = 31

[[record]]
structure_notation = "COCCOc1cnc2ccn([C@H](C)c3nnc4c(F)cc(-c5cnn(C)c5)cn34)c(=O)c2c1"
experimental_endpoint = "bioavailability"
scale_unit = "%"
measured_number = 30

[[record]]
structure_notation = "C[C@H](c1nnc2c(F)cc(-c3cnn(C)c3)cn12)n1ccc2ncccc2c1=O"
experimental_endpoint = "bioavailability"
scale_unit = "%"
measured_number = 31

[[record]]
structure_notation = "COCCOc1cnc2ccn([C@H](C)c3nnc4ccc(-c5cc(C)no5)cn34)c(=O)c2c1"
experimental_endpoint = "bioavailability"
scale_unit = "%"
measured_number = 59


====

Target: CYP3A4 (Homo sapiens)
Sequence (P08684 whole entry): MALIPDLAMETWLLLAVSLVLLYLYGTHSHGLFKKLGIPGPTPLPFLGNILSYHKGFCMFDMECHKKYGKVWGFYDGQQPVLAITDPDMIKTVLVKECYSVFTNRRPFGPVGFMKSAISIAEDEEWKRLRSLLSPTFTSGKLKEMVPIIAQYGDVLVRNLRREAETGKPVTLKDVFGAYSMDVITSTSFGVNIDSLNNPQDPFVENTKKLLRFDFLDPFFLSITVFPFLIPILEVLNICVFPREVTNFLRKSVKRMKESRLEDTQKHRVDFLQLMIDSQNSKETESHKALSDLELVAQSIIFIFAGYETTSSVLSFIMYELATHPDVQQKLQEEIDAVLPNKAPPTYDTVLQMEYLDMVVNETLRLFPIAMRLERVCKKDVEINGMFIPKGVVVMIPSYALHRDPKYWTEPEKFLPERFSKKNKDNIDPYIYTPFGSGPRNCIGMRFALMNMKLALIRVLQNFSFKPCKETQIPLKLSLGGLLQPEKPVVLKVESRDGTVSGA
Assay: Inhibition of CYP3A4 (unknown origin) in presence of NADPH
Type: ADME
Experimental endpoint: IC50

[[record]]
structure_notation = "COc1cnc2c(NCc3nnc4ccc(-c5cc(C)ns5)nn34)ccnc2c1"
result = "> 50 µM"


====

Assay: Solubility of compound in PBS
Assay type: physicochemical
Overview of recorded solubility for various compounds
Experimental endpoint: solubility (µg/mL)

[[record]]
structure_notation = "COc1cnc2c(NCc3nnc4ccc(-c5cc(C)ns5)nn34)ccnc2c1"
measured_number = 3

[[record]]
structure_notation = "COCCOc1cnc2ccc([C@H](C)c3nnc4c(F)cc(-c5cc(C)no5)cn34)cc2c1"
measured_number = 52

[[record]]
structure_notation = "COc1ccc2c(OCc3nnc4ccc(-c5cc(F)c(F)c(F)c5)nn34)ccnc2c1"
measured_number = 4

[[record]]
structure_notation = "COCCOc1cnc2ccc([C@H](C)n3nnc4ccn(-c5cc(C)ns5)c(=O)c43)cc2c1"
measured_number = 9


====

Assay: Intrinsic clearance in mouse liver microsomes
Format: ADME
Conditions: read-out: CLH
Experimental endpoint: microsomal CLint (µL/min/mg)

[[record]]
molecule = "COc1cnc2ccn([C@H](C)c3nnc4c(F)cc(-c5cnn(C)c5)cn34)c(=O)c2c1"
comparator = "="
measured_number = 7

[[record]]
molecule = "COc1cnc2ccn([C@H](C)c3nnc4ccc(-c5cnn(C)c5)cn34)c(=O)c2c1"
comparator = "="
measured_number = 7

[[record]]
molecule = "COCCOc1cnc2ccn([C@H](C)c3nnc4c(F)cc(-c5cnn(C)c5)cn34)c(=O)c2c1 [AMG-337]"
comparator = "="
measured_number = 8

[[record]]
molecule = "COCCOc1cnc2ccn([C@H](C)c3nnc4ccc(-c5cnn(C)c5)cn34)c(=O)c2c1"
comparator = "="
measured_number = 7

[[record]]
molecule = "Cc1cc(-c2cc(F)c3nnc([C@@H](C)n4ccc5ncccc5c4=O)n3c2)on1"
comparator = "<"
measured_number = 5

[[record]]
molecule = "COCCOc1cnc2ccn([C@H](C)c3nnc4ccc(-c5cc(C)no5)cn34)c(=O)c2c1"
comparator = "="
measured_number = 23

[[record]]
molecule = "COCCOc1cnc2ccn([C@H](C)c3nnc4c(F)cc(-c5cc(C)no5)cn34)c(=O)c2c1"
comparator = "="
measured_number = 14

[[record]]
molecule = "C[C@H](c1nnc2c(F)cc(-c3cnn(C)c3)cn12)n1ccc2ncccc2c1=O"
comparator = "<"
measured_number = 5


====

Test: Clearance in Beagle dog at 0.425 mg/kg, iv
Type: ADME, organism-based, Canis lupus familiaris
Details: in vivo
Experimental endpoint: clearance (mL/min/kg)

[[record]]
structure_notation = "COCCOc1cnc2ccn([C@H](C)c3nnc4ccc(-c5cc(C)no5)cn34)c(=O)c2c1"
experimental_endpoint = "clearance"
measured_number = 5


====

Test: Volume of distribution at steady state in Sprague-Dawley rat
Assay type: ADME, organism-based
Conditions: in vivo, read-out: Vdss
Experimental endpoint: Vd (L/kg)

[[record]]
structure_notation = "Cc1cc(-c2cc(F)c3nnc([C@@H](C)n4ccc5ncccc5c4=O)n3c2)on1"
measured_number = 0.4

[[record]]
structure_notation = "C[C@H](c1nnc2c(F)cc(-c3cnn(C)c3)cn12)n1ccc2ncccc2c1=O"
measured_number = 0.7

[[record]]
structure_notation = "COCCOc1cnc2ccn([C@H](C)c3nnc4c(F)cc(-c5cnn(C)c5)cn34)c(=O)c2c1"
measured_number = 0.9

[[record]]
structure_notation = "COc1cnc2ccn([C@H](C)c3nnc4c(F)cc(-c5cnn(C)c5)cn34)c(=O)c2c1"
measured_number = 0.5

[[record]]
structure_notation = "COCCOc1cnc2ccn([C@H](C)c3nnc4c(F)cc(-c5cc(C)no5)cn34)c(=O)c2c1"
measured_number = 0.7


====

Overview of recorded clearance for various compounds
Test: Clearance in Sprague-Dawley rat at 0.25 mg/kg, iv
Format: ADME, organism-based
Conditions: in vivo
Experimental endpoint: clearance (mL/min/kg)

[[record]]
structure_notation = "COc1cnc2ccn([C@H](C)c3nnc4c(F)cc(-c5cnn(C)c5)cn34)c(=O)c2c1"
scale_unit = "mL/min/kg"
measured_number = 2

[[record]]
structure_notation = "COc1cnc2ccn([C@H](C)c3nnc4c(F)cc(-c5cc(C)no5)cn34)c(=O)c2c1"
scale_unit = "mL/min/kg"
measured_number = 7.67

[[record]]
structure_notation = "COCCOc1cnc2ccn([C@H](C)c3nnc4ccc(-c5cnn(C)c5)cn34)c(=O)c2c1"
scale_unit = "mL/min/kg"
measured_number = 11.7

[[record]]
structure_notation = "COc1cnc2c(NCc3nnc4ccc(-c5cc(C)ns5)nn34)ccnc2c1"
scale_unit = "mL/min/kg"
measured_number = 3.17

[[record]]
structure_notation = "C[C@H](c1nnc2c(F)cc(-c3cnn(C)c3)cn12)n1ccc2ncccc2c1=O"
scale_unit = "mL/min/kg"
measured_number = 4.67


====

Assay: Half life in Sprague-Dawley rat
Type: ADME, organism-based
Details: in vivo
Experimental endpoint: half-life (h)

[[record]]
structure_notation = "COc1cnc2ccn([C@H](C)c3nnc4c(F)cc(-c5cnn(C)c5)cn34)c(=O)c2c1"
scale_unit = "h"
measured_number = 3.6

[[record]]
structure_notation = "COCCOc1cnc2ccn([C@H](C)c3nnc4ccc(-c5cc(C)no5)cn34)c(=O)c2c1"
scale_unit = "h"
measured_number = 2.4

[[record]]
structure_notation = "COc1ccc2c(OCc3nnc4ccc(-c5cc(F)c(F)c(F)c5)nn34)ccnc2c1"
scale_unit = "h"
measured_number = 3.5

[[record]]
structure_notation = "COCCOc1cnc2ccn([C@H](C)c3nnc4c(F)cc(-c5cc(C)no5)cn34)c(=O)c2c1"
scale_unit = "h"
measured_number = 2.9

[[record]]
structure_notation = "COCCOc1cnc2ccc([C@H](C)n3nnc4ccn(-c5cc(C)ns5)c(=O)c43)cc2c1"
scale_unit = "h"
measured_number = 3.4

[[record]]
structure_notation = "C[C@H](c1nnc2c(F)cc(-c3cnn(C)c3)cn12)n1ccc2ncccc2c1=O"
scale_unit = "h"
measured_number = 4

